Values were extracted from the supplement of paper PMC12669032.

System: Bacteroides dorei
Experiment summary: growth AUC relative to DMSO control (median of replicates) (fraction); higher = more growth (less inhibition), active = hit call of the paper
Experimental context: 20 µM; 24 h
Property measured: growth AUC

{"columns": ["Compound", "Experimental value"],
 "data": [
  ["Oc1cccc2cccnc12", 0.993],
  ["CC1(C)C(C=C(Cl)Cl)[C@@H]1C(=O)O[C@@H](C#N)c1ccc(F)c(Oc2ccccc2)c1 (some centres not stated)", 1.01],
  ["CCNc1nc(Cl)nc(NCC)n1", 1.02],
  ["c1cc2c3c(cccc3c1)CC2", 1.01],
  ["CNC(=O)Oc1ccc(N(C)C)c(C)c1", 0.983],
  ["CCc1ccc(C(=O)NN(C(=O)c2cc(C)cc(C)c2)C(C)(C)C)cc1", 0.987],
  ["CC1(C)CCC(Cc2ccc(Cl)cc2)C1(O)Cn1cncn1 (configuration not stated)", 0.98],
  ["CNC(=O)Oc1ccccc1OC(C)C", 1.01],
  ["COP(=O)(OC)Oc1ccc(S(C)=O)c(C)c1 (configuration not stated)", 1],
  ["CC(C)Oc1cc(-n2nc(C(C)(C)C)oc2=O)c(Cl)cc1Cl", 0.982],
  ["COc1cnc(OC)n2nc(NS(=O)(=O)c3c(OCC(F)F)cccc3C(F)(F)F)nc12", 0.993],
  ["CCc1cccc(C)c1N(C(=O)CCl)[C@@H](C)COC", 0.98],
  ["O=C(NCCc1ncc(C(F)(F)F)cc1Cl)c1ccccc1C(F)(F)F", 1],
  ["O=[N+]([O-])c1ccc(O)c([N+](=O)[O-])c1", 0.98],
  ["COC(=O)N(C(=O)N1CO[C@@]2(C(=O)OC)Cc3cc(Cl)ccc3C2=N1)c1ccc(OC(F)(F)F)cc1", 0.982],
  ["CS(=O)(=O)c1ccc(C(=O)C2C(=O)CCCC2=O)c(Cl)c1COCC(F)(F)F", 0.999],
  ["CCCOc1nn(C(=O)[N-]S(=O)(=O)c2ccccc2C(=O)OC)c(=O)n1C.[Na+]", 1.02]
]}

---

Tested on: Roseburia intestinalis
Experiment summary: growth AUC relative to DMSO control (median of replicates) (fraction); higher = more growth (less inhibition), active = hit call of the paper;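 active = AUC reduced over 20% with Padj below 0.05 in at least 2 of 3 replicates; inactive = otherwise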
Experimental context: 20 µM; 24 h
Classes used: yes = active, no = inactive

{"columns": ["Molecule", "Qualitative label"],
 "data": [
  ["CCOP(=S)(OCC)Oc1cc(C)nc(C(C)C)n1", "no"],
  ["O=C1C[C@@H]2OCC=C3CN4CC[C@]56c7ccccc7N1[C@H]5[C@H]2[C@H]3C[C@H]46", "no"],
  ["COc1ncc(F)c2nc(S(=O)(=O)Nc3c(F)cccc3F)nn12", "no"],
  ["CCOC(=O)Nc1cccc(OC(=O)Nc2ccccc2)c1", "no"],
  ["CC(=O)O.CC(=O)O.CC(=O)O.NC(N)=NCCCCCCCCNCCCCCCCCN=C(N)N", "yes"],
  ["O=C(O)C1(O)c2ccccc2-c2ccc(Cl)cc21 (centres undefined)", "no"],
  ["COP(=S)(NC(C)C)Oc1ccc(C)cc1[N+](=O)[O-] (centres undefined)", "no"],
  ["CCN(Cc1ccc(Cl)nc1)/C(=C/[N+](=O)[O-])NC", "no"],
  ["CCCN(CCC)c1c([N+](=O)[O-])cc(S(C)(=O)=O)cc1[N+](=O)[O-]", "no"]
]}
